test: physchem; details: octan-1-ol/water, pH 7.4, LogD7.4
# logD annotations
measuredAttribute: logD

>>> recordedmeasurement("NC(=O)Nc1cc(-c2ccccc2)sc1C(=O)N[C@H]1CCCNC1")
1.04
>>> recordedmeasurement("COc1cc2ncnc(Nc3cccc(Cl)c3F)c2cc1CN1CCC[C@@H]1C(N)=O")
3.58
>>> recordedmeasurement("COc1cc(Nc2nc(N[C@@H](C)c3ncc(F)cn3)nc(N3CCOCC3)c2F)[nH]n1")
2.64
>>> recordedmeasurement("Cc1ccc(C(=O)NC(C)C)cc1-n1cnc2ccc(N3CCN(C)CC3)cc2c1=O")
1.56
>>> recordedmeasurement("COc1cc(F)ccc1-c1cncc(CNC(=O)C2CC2)c1")
2.9
>>> recordedmeasurement("Cc1c2c(=O)n(-c3ccccc3Cl)[nH]c2cc(=O)n1Cc1ccccn1")
0.2
>>> recordedmeasurement("Cc1ccc(C(=O)NC2CCN(c3cc(C(N)=O)cc(Cl)n3)CC2)[nH]1")
2.64
>>> recordedmeasurement("C[C@H](CO)Nc1nc(SCc2cccc(Cl)c2)nc2nc(N)sc12")
3.31
>>> recordedmeasurement("CC1(C)[C@@H]2CC[C@@]1(CS(=O)(=O)NC1CCN(c3ccc(C(F)(F)F)cn3)CC1)C(=O)C2")
3.84
>>> recordedmeasurement("CC(=O)Nc1ccc(CC(=O)N(C)C2CCN(CCC(c3ccccc3)c3ccccc3)CC2)cc1")
2.9
